Experiment: Oral bioavailability in male Sprague-Dawley rat at 5 mg/kg
Assay type: ADME, organism-based
Test Parameters: in vivo

- Smiles Data: "CC(C)n1cnnc1-c1cccc(NC(=O)[C@H]2CN(c3ccc(C4CC4)nc3)CCO2)n1"
  bioavailability [%]: 18

* * *

Study Target: Ribosomal protein S6 kinase alpha-3 (Homo sapiens, UniProt P51812)
Sequence (P51812 whole entry): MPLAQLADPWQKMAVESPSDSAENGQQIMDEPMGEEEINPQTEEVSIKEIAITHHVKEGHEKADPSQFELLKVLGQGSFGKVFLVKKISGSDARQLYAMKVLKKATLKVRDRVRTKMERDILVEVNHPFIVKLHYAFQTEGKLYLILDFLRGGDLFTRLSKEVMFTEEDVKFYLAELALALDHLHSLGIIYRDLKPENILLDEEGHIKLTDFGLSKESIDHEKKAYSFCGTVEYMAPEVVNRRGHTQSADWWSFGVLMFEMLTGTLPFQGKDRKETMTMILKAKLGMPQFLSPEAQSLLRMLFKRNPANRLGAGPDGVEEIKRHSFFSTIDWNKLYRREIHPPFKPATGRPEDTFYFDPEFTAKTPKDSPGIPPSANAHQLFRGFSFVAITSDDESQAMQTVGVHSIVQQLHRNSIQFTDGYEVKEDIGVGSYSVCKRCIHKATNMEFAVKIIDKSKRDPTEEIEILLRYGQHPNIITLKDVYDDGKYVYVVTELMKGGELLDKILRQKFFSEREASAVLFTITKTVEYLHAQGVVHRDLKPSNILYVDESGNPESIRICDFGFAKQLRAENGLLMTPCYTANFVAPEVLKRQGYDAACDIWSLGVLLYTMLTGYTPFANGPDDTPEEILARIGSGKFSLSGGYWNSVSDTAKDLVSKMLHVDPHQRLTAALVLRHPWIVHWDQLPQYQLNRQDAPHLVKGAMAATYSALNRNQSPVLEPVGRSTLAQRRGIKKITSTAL
Experiment: Inhibition of recombinant human full-length His-tagged RSK2 expressed in baculovirus expression system
pIC50: −log10 of the molar value.

- Smiles Data: "CC(C)n1cnnc1-c1cccc(NC(=O)[C@H]2CN(c3ccc(C4CC4)nc3)CCO2)n1"
  pIC50: "≥ 6.30"

* * *

Study Target: Mitogen-activated protein kinase kinase kinase 5 (Homo sapiens, UniProt Q99683)
Experiment: Inhibition of ASK1 (unknown origin) by cell based assay
pEC50: −log10 of the molar value.
Parameter: pEC50

- Smiles Data: "CC(C)n1cnnc1-c1cccc(NC(=O)[C@H]2CN(c3ccc(C4CC4)nc3)CCO2)n1"
  Parameter: "pEC50"
  Value Reported: 7.62

* * *

Study Target: Tyrosine-protein kinase Mer (Homo sapiens, UniProt Q12866)
pIC50: −log10 of the molar value.

- Compound: "CC(C)n1cnnc1-c1cccc(NC(=O)C2CCCCO2)n1 (stereo unspecified)"
  Study Target: "Tyrosine-protein kinase Mer (Homo sapiens, UniProt Q12866)"
  pIC50: "< 4.70"

* * *

Study Target: Receptor tyrosine-protein kinase erbB-4 (Homo sapiens)
Experiment: Inhibition of HER4 (unknown origin)
Parameter: IC50

- Compound: "CC(C)n1cnnc1-c1cccc(NC(=O)C2CCCCO2)n1 (configuration not stated)"
  Parameter: "IC50"
  Value Reported: "> 20 µM"
- Compound: "CC(C)n1cnnc1-c1cccc(N2Cc3ccccc3C2=O)n1"
  Parameter: "IC50"
  Value Reported: "> 20 µM"

* * *

Study Target: Leucine-rich repeat serine/threonine-protein kinase 2 (Homo sapiens, UniProt Q5S007)
Sequence (Q5S007 whole entry): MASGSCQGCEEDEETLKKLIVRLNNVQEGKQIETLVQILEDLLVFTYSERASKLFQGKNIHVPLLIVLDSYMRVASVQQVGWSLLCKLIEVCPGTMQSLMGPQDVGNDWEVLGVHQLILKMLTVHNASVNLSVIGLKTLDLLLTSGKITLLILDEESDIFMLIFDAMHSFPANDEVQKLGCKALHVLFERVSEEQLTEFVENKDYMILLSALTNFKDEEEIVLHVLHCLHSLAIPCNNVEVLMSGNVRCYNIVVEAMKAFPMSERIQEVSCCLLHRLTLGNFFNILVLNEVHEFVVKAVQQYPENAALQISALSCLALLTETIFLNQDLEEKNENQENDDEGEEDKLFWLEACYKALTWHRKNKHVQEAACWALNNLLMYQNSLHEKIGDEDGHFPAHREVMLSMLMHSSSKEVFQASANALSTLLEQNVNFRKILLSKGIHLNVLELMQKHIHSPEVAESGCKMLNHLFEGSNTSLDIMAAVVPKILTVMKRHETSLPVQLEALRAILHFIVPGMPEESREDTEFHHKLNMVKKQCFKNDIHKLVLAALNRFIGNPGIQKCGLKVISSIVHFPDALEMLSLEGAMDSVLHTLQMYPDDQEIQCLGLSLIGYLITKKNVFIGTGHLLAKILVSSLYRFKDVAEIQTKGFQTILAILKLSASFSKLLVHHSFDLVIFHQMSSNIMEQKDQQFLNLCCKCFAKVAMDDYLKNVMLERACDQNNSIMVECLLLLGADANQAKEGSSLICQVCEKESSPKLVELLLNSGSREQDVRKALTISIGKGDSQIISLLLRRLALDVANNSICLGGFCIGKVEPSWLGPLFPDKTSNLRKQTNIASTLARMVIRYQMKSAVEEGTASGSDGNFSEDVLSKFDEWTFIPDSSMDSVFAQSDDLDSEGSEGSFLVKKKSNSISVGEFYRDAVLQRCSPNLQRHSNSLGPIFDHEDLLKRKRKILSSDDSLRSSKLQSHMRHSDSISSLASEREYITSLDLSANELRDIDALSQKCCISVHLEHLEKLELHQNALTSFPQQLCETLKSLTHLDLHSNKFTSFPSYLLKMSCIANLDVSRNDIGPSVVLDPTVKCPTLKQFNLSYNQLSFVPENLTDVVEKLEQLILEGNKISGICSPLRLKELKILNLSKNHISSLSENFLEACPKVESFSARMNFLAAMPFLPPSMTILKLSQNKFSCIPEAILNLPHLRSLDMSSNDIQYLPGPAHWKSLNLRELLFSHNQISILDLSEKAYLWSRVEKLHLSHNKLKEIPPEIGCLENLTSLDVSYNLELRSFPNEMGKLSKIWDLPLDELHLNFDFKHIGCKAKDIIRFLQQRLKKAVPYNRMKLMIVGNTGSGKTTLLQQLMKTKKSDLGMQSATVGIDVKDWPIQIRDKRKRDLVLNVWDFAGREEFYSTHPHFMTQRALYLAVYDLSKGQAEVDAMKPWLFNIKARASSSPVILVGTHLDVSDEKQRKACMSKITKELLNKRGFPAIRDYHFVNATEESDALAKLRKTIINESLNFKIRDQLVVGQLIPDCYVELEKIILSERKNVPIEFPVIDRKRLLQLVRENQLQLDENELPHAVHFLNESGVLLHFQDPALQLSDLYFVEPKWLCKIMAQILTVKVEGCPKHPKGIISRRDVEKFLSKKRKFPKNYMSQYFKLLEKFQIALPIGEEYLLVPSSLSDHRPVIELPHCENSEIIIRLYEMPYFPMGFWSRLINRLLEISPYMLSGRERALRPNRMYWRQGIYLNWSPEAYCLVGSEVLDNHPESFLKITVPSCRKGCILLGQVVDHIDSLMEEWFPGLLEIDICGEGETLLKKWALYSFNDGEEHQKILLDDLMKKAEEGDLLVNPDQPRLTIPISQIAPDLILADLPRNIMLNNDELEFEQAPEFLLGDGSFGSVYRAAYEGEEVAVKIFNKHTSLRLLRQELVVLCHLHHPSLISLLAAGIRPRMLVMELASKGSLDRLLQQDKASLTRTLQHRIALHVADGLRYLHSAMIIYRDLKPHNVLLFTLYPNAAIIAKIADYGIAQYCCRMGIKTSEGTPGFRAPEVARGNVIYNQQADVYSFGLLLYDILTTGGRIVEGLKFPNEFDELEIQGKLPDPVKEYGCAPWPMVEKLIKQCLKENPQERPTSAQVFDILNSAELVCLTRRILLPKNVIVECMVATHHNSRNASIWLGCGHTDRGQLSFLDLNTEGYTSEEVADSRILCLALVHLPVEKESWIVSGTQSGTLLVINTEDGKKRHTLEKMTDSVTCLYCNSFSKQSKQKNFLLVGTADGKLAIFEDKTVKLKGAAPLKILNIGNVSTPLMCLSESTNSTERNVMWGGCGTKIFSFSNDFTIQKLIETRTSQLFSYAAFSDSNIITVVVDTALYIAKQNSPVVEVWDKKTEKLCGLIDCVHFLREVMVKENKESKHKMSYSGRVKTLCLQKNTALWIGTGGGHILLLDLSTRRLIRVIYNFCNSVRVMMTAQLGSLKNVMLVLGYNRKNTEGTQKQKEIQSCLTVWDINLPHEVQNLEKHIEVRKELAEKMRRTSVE
Experiment: Inhibition of recombinant human GST-tagged LRRK2 expressed in baculovirus expression system

- Smiles Data: "CC(C)n1cnnc1-c1cccc(NC(=O)[C@H]2CN(c3ccc(C4CC4)nc3)CCO2)n1"
  IC50: "≤ 500 nM"

* * *

Study Target: Receptor tyrosine-protein kinase erbB-4 (Homo sapiens, UniProt Q15303)
Sequence (Q15303 whole entry): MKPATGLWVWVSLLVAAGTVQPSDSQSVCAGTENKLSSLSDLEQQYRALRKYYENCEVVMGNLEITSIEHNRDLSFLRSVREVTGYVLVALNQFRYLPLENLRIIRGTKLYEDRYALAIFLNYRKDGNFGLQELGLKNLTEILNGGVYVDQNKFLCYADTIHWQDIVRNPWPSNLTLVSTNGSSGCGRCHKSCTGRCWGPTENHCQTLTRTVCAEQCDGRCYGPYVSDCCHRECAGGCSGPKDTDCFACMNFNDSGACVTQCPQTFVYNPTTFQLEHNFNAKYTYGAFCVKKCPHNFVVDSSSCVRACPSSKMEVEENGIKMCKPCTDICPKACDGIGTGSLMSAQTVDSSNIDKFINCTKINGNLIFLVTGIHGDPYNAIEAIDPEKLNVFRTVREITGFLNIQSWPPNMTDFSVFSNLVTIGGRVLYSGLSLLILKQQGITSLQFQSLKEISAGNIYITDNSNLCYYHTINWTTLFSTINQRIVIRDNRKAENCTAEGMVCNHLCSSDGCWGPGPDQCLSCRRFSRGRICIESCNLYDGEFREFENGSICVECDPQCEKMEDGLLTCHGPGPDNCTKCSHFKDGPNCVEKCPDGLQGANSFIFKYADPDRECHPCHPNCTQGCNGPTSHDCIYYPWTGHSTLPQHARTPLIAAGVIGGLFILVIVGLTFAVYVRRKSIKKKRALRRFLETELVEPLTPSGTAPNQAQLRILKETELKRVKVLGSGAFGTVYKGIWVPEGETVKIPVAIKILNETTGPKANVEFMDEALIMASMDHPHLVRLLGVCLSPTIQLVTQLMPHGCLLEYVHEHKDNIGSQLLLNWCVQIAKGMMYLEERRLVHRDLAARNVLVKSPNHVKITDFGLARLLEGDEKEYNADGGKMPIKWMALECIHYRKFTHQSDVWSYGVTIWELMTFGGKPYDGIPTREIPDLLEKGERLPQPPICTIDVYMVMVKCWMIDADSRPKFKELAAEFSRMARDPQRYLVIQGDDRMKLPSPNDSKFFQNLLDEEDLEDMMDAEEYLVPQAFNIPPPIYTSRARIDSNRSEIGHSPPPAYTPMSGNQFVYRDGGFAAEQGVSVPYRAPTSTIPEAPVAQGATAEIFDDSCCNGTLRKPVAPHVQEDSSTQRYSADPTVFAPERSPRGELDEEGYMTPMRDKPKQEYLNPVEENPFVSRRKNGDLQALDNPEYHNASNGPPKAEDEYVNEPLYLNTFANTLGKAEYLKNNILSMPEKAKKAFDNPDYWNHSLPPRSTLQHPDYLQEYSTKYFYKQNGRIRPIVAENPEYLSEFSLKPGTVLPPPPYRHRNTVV
Experiment: Inhibition of ERBB4 (unknown origin)
pIC50: −log10 of the molar value.
# reported pIC50; entries follow

- Molecule: "CC(C)n1cnnc1-c1cccc(NC(=O)C2CCCCO2)n1 (configuration not stated)"
  pIC50: "< 4.70"
- Molecule: "CC(C)n1cnnc1-c1cccc(N2Cc3ccccc3C2=O)n1"
  pIC50: "< 4.70"

* * *

Study Target: Mitogen-activated protein kinase kinase kinase 5 (Homo sapiens)
Sequence (Q99683 whole entry): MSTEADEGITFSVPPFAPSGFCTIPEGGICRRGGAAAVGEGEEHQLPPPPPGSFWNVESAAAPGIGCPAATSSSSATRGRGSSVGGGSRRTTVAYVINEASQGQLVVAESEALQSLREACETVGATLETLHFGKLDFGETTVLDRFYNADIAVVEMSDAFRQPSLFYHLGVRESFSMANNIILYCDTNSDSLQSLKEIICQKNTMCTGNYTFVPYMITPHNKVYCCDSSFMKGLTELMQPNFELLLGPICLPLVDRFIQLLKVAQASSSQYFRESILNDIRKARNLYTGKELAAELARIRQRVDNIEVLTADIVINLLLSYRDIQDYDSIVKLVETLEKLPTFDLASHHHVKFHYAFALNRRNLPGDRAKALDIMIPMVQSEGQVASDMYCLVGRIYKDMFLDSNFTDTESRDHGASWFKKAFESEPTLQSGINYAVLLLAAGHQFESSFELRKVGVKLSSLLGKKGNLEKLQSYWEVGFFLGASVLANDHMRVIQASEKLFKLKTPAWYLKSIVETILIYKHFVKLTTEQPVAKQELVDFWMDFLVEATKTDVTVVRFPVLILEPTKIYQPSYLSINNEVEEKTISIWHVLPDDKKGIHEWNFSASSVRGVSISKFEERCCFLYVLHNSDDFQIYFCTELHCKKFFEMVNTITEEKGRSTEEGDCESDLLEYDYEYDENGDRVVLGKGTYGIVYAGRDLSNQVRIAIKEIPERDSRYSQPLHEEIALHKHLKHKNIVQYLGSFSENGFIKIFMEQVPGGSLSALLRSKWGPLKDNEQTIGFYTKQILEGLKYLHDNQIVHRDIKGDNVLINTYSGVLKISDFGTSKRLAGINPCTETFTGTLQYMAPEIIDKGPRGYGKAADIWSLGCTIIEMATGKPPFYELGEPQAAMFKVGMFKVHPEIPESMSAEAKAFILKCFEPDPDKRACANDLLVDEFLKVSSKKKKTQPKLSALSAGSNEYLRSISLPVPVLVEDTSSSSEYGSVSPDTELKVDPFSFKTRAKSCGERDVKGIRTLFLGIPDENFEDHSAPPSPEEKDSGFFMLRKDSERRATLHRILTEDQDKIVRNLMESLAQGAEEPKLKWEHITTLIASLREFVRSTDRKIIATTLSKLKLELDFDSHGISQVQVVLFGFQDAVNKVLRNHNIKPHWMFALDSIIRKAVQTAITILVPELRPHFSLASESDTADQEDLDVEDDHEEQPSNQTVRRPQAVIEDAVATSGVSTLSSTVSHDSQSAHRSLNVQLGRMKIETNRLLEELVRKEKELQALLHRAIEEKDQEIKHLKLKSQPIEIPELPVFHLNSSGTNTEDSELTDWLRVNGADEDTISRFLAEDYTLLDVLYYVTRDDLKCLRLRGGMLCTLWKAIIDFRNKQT
Experiment: Inhibition of ASK1 (unknown origin)
pIC50: −log10 of the molar value.

- Compound: "CC(C)n1cnnc1-c1cccc(NC(=O)[C@H]2CN(c3ccc(C4CC4)nc3)CCO2)n1"
  pIC50: 7.77
- Compound: "CC(C)n1cnnc1-c1cccc(NC(=O)C2CN(C)CCO2)n1 (stereo unspecified)"
  pIC50: 8.70
- Compound: "CC(C)n1cnnc1-c1cccc(NC(=O)C2CN(c3cccnc3)CCO2)n1 (stereo unspecified)"
  pIC50: 7.51
- Compound: "CC(C)n1cnnc1-c1cccc(NC(=O)C2CCCCO2)n1 (stereo unspecified)"
  pIC50: 6.57
- Compound: "CC(C)n1cnnc1-c1cccc(N2Cc3ccccc3C2=O)n1"
  pIC50: 7.85
- Compound: "CC(C)n1cnnc1-c1cccc(NC(=O)C2CN(c3ccccc3)CCO2)n1 (stereo unspecified)"
  pIC50: 6.89
